# Target or system: T1, P9A-bH
# T1 chain: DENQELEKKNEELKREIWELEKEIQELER
# Assay text: two-hybrid library CCNG1;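 further: natural log of median RNA to DNA barcode read ratio; higher means stronger binding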
Measure: interaction score
Answers are plain numbers.

Solved cases below.
Binder: DENQELEKEIEELEREIWELEKKNQELKR [P11A-bH]
interaction score: 1.09
--
Binder: DKNQELKKKIEELKRKIWELKKENQELER [P12A-bH]
interaction score: 0.667
--
Binder: DEIQELEKENEELERENWELEKEIQELER [P1A-bH]
interaction score: -1.36
--
Binder: DENQELEKKIEELKRKNWELKKEIQELER [P5A-bH]
interaction score: -0.708
--
Binder: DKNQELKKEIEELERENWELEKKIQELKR [P6A-bH]
interaction score: 0.983

Quick one: give me interaction score for each item below, same order please.
1. DKIQELKKKNEELKRKNWELKKKIQELKR [P2A-bH]
2. DEIQELEKEIEELERKNWELKKKNQELKR [P3A-bH]

[-1.02, 0.465]
